Exercise: for every item that follows, state its recorded AUC0–t.
experimental-protocol: Plasma pharmacokinetics after oral administration of YCHT in model (CCl4-induced acute liver injury) rats, UHPLC-MS/MS
measurement-parameters: model (CCl4 liver injured) rats, oral YCHT 60 g/kg, plasma, n = 6

Solved cases below.
- compound: "COc1cc2ccc(=O)oc2cc1OC"
  AUC0–t: "5196.54 ± 513.37∗∗ ug/L∗h"
- compound: "COC(=O)C1=CO[C@@H](O[C@@H]2O[C@H](CO)[C@@H](O)[C@H](O)[C@H]2O)[C@@H]2C(CO)=CC[C@H]12 [Geniposide]"
  AUC0–t: "5000.36 ± 755.13∗∗ ug/L∗h"
- compound: "O=C1c2cccc(O)c2C(=O)c2c(O)cc(CO)cc21"
  AUC0–t: "153.62 ± 18.13∗∗ ug/L∗h"
- compound: "Cc1cc(O)c2c(c1)C(=O)c1cc(O)cc(O)c1C2=O"
  AUC0–t: "11.66 ± 2.70 ug/L∗h"
- compound: "O=C(O)c1cc(O)c2c(c1)C(=O)c1cccc(O)c1C2=O"
  AUC0–t: "5453.29 ± 1202.14∗∗ ug/L∗h"

I need AUC0–t for every entry listed below, if you could help.
1. COc1cc(O)c2c(c1)C(=O)c1cc(C)cc(O)c1C2=O
2. COc1cc2ccc(=O)oc2cc1O

Reply text:
1. 44.98 ± 13.92∗∗ ug/L∗h
2. 7.23 ± 1.84 ug/L∗h

----------
experimental-protocol: Plasma pharmacokinetics after oral administration of YCHT in model (CCl4-induced acute liver injury) rats, UHPLC-MS/MS
measurement-parameters: Sprague-Dawley, rat, in vivo, po, 60 g/kg
Sorting guide: entries reporting MRT inf beneath 5 h go in the 1.0 pile, the rest go in the 0.0 pile.

- molecule: "Cc1cc(O)c2c(c1)C(=O)c1cc(O)cc(O)c1C2=O"
  assigned-class: 0.0

Inquiry: Criterion: MRT inf strictly below 5 h. Is it met by `O=C1c2cccc(O)c2C(=O)c2c(O)cc(CO)cc21` ?
Reply text: 1.0

Inquiry: Check if MRT inf falls below 5 h for `COc1cc2ccc(=O)oc2cc1O` .
Reply text: 0.0

Inquiry: Check if MRT inf falls below 5 h for `Cc1cc(O)c2c(c1)C(=O)c1cccc(O)c1C2=O` .
Reply text: 1.0

Inquiry: Below 5 h on MRT inf? Entry `COc1cc(O)c2c(c1)C(=O)c1cc(C)cc(O)c1C2=O`
Reply text: 0.0

Inquiry: hey, is MRT inf for `O=C(O)c1cc(O)c2c(c1)C(=O)c1cccc(O)c1C2=O` lower than 5 h or not?
Reply text: 1.0

Inquiry: MRT inf under 5 h? Item: COC(=O)C1=CO[C@@H](O[C@@H]2O[C@H](CO)[C@@H](O)[C@H](O)[C@H]2O)[C@@H]2C(CO)=CC[C@H]12 [Geniposide]
Reply text: 0.0

----------
experimental-protocol: Plasma pharmacokinetics after oral administration of YCHT in control (normal) rats, UHPLC-MS/MS
Format: in vivo, Sprague-Dawley rats
measurement-parameters: Sprague-Dawley, rat, in vivo; control rats, oral YCHT 60 g/kg, plasma, n = 6; read-out: MRT0–∞
measurement-type: MRT inf (h)
Answers are plain numbers, in h.

- compound: "O=C1c2cccc(O)c2C(=O)c2c(O)cc(CO)cc21 [Aloe-emodin]"
  unit-symbol: "h"
  endpoint-value: 4.33
- compound: "Cc1cc(O)c2c(c1)C(=O)c1cc(O)cc(O)c1C2=O [Emodin]"
  unit-symbol: "h"
  endpoint-value: 6.65

// switching to the query compound
Inquiry: Quick one: MRT inf for COC(=O)C1=CO[C@@H](O[C@@H]2O[C@H](CO)[C@@H](O)[C@H](O)[C@H]2O)[C@@H]2C(CO)=CC[C@H]12 [Geniposide] ?
Reply text: 4.8

----------
experimental-protocol: Plasma pharmacokinetics after oral administration of YCHT in model (CCl4-induced acute liver injury) rats, UHPLC-MS/MS
measurement-parameters: Sprague-Dawley, rat, plasma, po, 60 g/kg
measurement-type: Tmax (min)
Numbers only, in min.

Inquiry: Recorded Tmax of `COc1cc2ccc(=O)oc2cc1OC` , please.
Reply text: 19.8

----------
experimental-protocol: Plasma pharmacokinetics after oral administration of YCHT in control (normal) rats, UHPLC-MS/MS
Type: in vivo, Sprague-Dawley rats
measurement-parameters: Sprague-Dawley, rat; control rats, oral YCHT 60 g/kg, plasma, n = 6; read-out: MRT0–∞
measurement-type: MRT inf (h)
Answers are plain numbers, in h.

Inquiry: Reported MRT inf for `COc1cc2ccc(=O)oc2cc1OC` : what is it?
Reply text: 3.51

----------
Exercise: for every item that follows, state its recorded Cmax.
experimental-protocol: Plasma pharmacokinetics after oral administration of YCHT in control (normal) rats, UHPLC-MS/MS
Assay type: in vivo, Sprague-Dawley rats
measurement-parameters: Sprague-Dawley, rat, in vivo, po, 60 g/kg
Answers are plain numbers, in ng/mL.

For orientation, consider the following solved cases.
- smiles-notation: "COc1cc(O)c2c(c1)C(=O)c1cc(C)cc(O)c1C2=O"
  endpoint-value: 8.45
- smiles-notation: "COc1cc2ccc(=O)oc2cc1O"
  endpoint-value: 3.53
- smiles-notation: "Cc1cc(O)c2c(c1)C(=O)c1cccc(O)c1C2=O"
  endpoint-value: 34.5

Okay, next one:
Inquiry: So what does the record say about Cmax for `O=C(O)c1cc(O)c2c(c1)C(=O)c1cccc(O)c1C2=O` ?
Reply text: 664

----------
experimental-protocol: Plasma pharmacokinetics after oral administration of YCHT in control (normal) rats, UHPLC-MS/MS
Assay type: in vivo, Sprague-Dawley rats
measurement-parameters: Sprague-Dawley, rat, in vivo; control rats, oral YCHT 60 g/kg, plasma, n = 6; read-out: Cmax
Description: The validated method was used for the pharmacokinetic study. P<0.05 represented statistical significance.
Give Cmax for every item shown.
Numbers only, in ng/mL.

- smiles-notation: "Cc1cc(O)c2c(c1)C(=O)c1cc(O)cc(O)c1C2=O"
  Cmax / ng/mL: 3.51

Now, please, on to the next compound.
Inquiry: Which Cmax value is on record for `O=C1c2cccc(O)c2C(=O)c2c(O)cc(CO)cc21` ?
Reply text: 15.2

----------
experimental-protocol: in vivo
measurement-parameters: Sprague-Dawley, rat, in vivo, po, 60 g/kg
Please provide measured log10 CL/F for the entries that follow.
Values reflect log10 of reported CL/F (mL/min/kg).

Some solved cases for reference:
- compound: "COc1cc(O)c2c(c1)C(=O)c1cc(C)cc(O)c1C2=O [Physcion]"
  log10 CL/F: 2.32
- compound: "Cc1cc(O)c2c(c1)C(=O)c1cccc(O)c1C2=O [Chrysophanol]"
  log10 CL/F: 2.41
- compound: "O=C(O)c1cc(O)c2c(c1)C(=O)c1cccc(O)c1C2=O [Rhein]"
  log10 CL/F: 1.49

Give me log10 CL/F for each of these compounds, listed below.
1. O=C1c2cccc(O)c2C(=O)c2c(O)cc(CO)cc21 [Aloe-emodin]
2. COc1cc2ccc(=O)oc2cc1O [Scopoletin]
3. Cc1cc(O)c2c(c1)C(=O)c1cc(O)cc(O)c1C2=O [Emodin]
4. COC(=O)C1=CO[C@@H](O[C@@H]2O[C@H](CO)[C@@H](O)[C@H](O)[C@H]2O)[C@@H]2C(CO)=CC[C@H]12 [Geniposide]

Reply text:
2.45
3.04
3.02
1.75

----------
experimental-protocol: Plasma pharmacokinetics after oral administration of YCHT in model (CCl4-induced acute liver injury) rats, UHPLC-MS/MS
measurement-parameters: Sprague-Dawley, rat, plasma, po, 60 g/kg
measurement-type: CL/F
Express your answer as a number followed by its unit.

Inquiry: Recorded CL/F of `COc1cc2ccc(=O)oc2cc1OC` , please.
Reply text: 32.7 mL/min/kg

----------
experimental-protocol: Plasma pharmacokinetics after oral administration of YCHT in model (CCl4-induced acute liver injury) rats, UHPLC-MS/MS
measurement-parameters: Sprague-Dawley, rat, in vivo, po, 60 g/kg
Description: The quality control (QC) and plasma samples were analyzed by an Agilent 6470 triple quadrupole LC–MS system (Agilent Technologies, Inc., Santa Clara, CA, USA), which consists of an Agilent 1290 Infinity II system connected to a triple quadrupole MS analyzer with an Agilent Jet Stream technologies electrospray ionization (ESI) interface. […] The plasma concentrations were expressed as arithmetic mean ± standard deviation (SD). […]
Threshold check on half-life: strictly below 3 h is YES; on or above 3 h is NO.

- molecule: "Cc1cc(O)c2c(c1)C(=O)c1cc(O)cc(O)c1C2=O [Emodin]"
  assigned-class: "NO"
- molecule: "COc1cc2ccc(=O)oc2cc1O [Scopoletin]"
  assigned-class: "YES"
- molecule: "COC(=O)C1=CO[C@@H](O[C@@H]2O[C@H](CO)[C@@H](O)[C@H](O)[C@H]2O)[C@@H]2C(CO)=CC[C@H]12 [Geniposide]"
  assigned-class: "NO"
- molecule: "Cc1cc(O)c2c(c1)C(=O)c1cccc(O)c1C2=O [Chrysophanol]"
  assigned-class: "NO"
- molecule: "O=C1c2cccc(O)c2C(=O)c2c(O)cc(CO)cc21 [Aloe-emodin]"
  assigned-class: "YES"

Inquiry: Is half-life strictly under 3 h for the entry O=C(O)c1cc(O)c2c(c1)C(=O)c1cccc(O)c1C2=O [Rhein] ?
Reply text: NO
